Kd: recorded values
Target: T1, Recombinant truncated human CD2 (human, UniProt P06729 25-209, limits assumed)
T1 construct: Bought; also called LFA2
T1 sequence (looked up): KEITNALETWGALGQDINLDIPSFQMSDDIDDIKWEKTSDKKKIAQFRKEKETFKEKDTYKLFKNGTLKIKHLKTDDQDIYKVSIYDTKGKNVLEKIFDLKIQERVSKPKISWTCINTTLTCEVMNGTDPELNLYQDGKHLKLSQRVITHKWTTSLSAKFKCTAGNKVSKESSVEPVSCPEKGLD
Assay: SPR (Biacore T200), IgG amine-coupled to CM5 chip, CD2 injected up to 5 nM, two-state model, 25 °C
measured metric: Kd (nM)

1) CD2-binding molecule 2 (Fc-silent (FcS) anti-CD2 IgG1) (antibody, V domains shown, IgG1 with LALA-PG mutations at equivalent sites in siplizumab; made in CHO-K1 cells; also called Fc-silent Siplizumab) VH: QVQLVQSGAEVQRPGASVKVSCKASGYIFTEYYMYWVRQAPGQGLELVGRIDPEDGSIDYVEKFKKKVTLTADTSSSTAYMELSSLTSDDTAVYYCARGKFNYRFAYWGQGTLVTVSS VL: DVVMTQSPPSLLVTLGQPASISCRSSQSLLHSSGNTYLNWLLQRPGQSPQPLIYLVSKLESGVPDRFSGSGSGTDFTLKISGVEAEDVGVYYCMQFTHYPYTFGQGTKLEIK :: 1.5
2) CD2-binding molecule 4 (FcS anti-CD2 IgG4) (antibody, V domains shown, Standard IgG4 framework with S228P, L235E, P329G; made in CHO-K1 cells) VH: QVQLVQSGAEVQRPGASVKVSCKASGYIFTEYYMYWVRQAPGQGLELVGRIDPEDGSIDYVEKFKKKVTLTADTSSSTAYMELSSLTSDDTAVYYCARGKFNYRFAYWGQGTLVTVSS VL: DVVMTQSPPSLLVTLGQPASISCRSSQSLLHSSGNTYLNWLLQRPGQSPQPLIYLVSKLESGVPDRFSGSGSGTDFTLKISGVEAEDVGVYYCMQFTHYPYTFGQGTKLEIK :: 1.4
3) CD2-binding molecule 1 (a deglycosylated CD2-binding molecule) (antibody, V domains shown, Fc N-glycan removed with EndoS2 (GlycINATOR), produced with GlycINATOR (EndoS2)) VH: QVQLVQSGAEVQRPGASVKVSCKASGYIFTEYYMYWVRQAPGQGLELVGRIDPEDGSIDYVEKFKKKVTLTADTSSSTAYMELSSLTSDDTAVYYCARGKFNYRFAYWGQGTLVTVSS VL: DVVMTQSPPSLLVTLGQPASISCRSSQSLLHSSGNTYLNWLLQRPGQSPQPLIYLVSKLESGVPDRFSGSGSGTDFTLKISGVEAEDVGVYYCMQFTHYPYTFGQGTKLEIK :: 1.2
4) CD2-binding molecule 3 (FcS anti-CD2 IgG2) (antibody, V domains shown, Standard IgG2 framework with V234A, G237A, P238S, H268A, V309L, A330S, P331S; made in CHO-K1 cells) VH: QVQLVQSGAEVQRPGASVKVSCKASGYIFTEYYMYWVRQAPGQGLELVGRIDPEDGSIDYVEKFKKKVTLTADTSSSTAYMELSSLTSDDTAVYYCARGKFNYRFAYWGQGTLVTVSS VL: DVVMTQSPPSLLVTLGQPASISCRSSQSLLHSSGNTYLNWLLQRPGQSPQPLIYLVSKLESGVPDRFSGSGSGTDFTLKISGVEAEDVGVYYCMQFTHYPYTFGQGTKLEIK :: 0.9
